Molecular target: T1, recombinant RSV-F protein (RSV A2 strain fusion (F) protein with added His tag) (human respiratory syncytial virus, A2 …, UniProt P03420 26-524)
T1 construct: also called RSV-F recombinant protein
T1 sequence (P03420 26-109, chain 1 of 2): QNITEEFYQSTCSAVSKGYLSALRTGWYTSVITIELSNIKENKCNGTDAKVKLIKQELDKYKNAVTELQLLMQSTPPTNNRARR
T1 sequence (P03420 137-524, chain 2 of 2): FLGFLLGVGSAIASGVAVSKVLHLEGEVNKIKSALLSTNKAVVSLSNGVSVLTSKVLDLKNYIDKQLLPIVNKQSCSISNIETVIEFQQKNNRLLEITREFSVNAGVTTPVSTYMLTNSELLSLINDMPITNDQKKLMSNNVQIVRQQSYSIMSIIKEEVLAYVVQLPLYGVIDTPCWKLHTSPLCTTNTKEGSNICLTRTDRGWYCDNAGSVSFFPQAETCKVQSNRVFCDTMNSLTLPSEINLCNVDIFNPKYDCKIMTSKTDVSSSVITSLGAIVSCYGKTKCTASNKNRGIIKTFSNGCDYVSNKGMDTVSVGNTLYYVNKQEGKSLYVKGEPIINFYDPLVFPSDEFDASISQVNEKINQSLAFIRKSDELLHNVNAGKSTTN
Experiment: SPR (Biacore), antibody captured, RSV-F as analyte; column head prints nM, Kd/Ka gives M
Reported values of Kd for individual entries

binder: A2-A (antibody, human IgG1, kappa, V domains shown, also called humanized mutant antibody A2-A) VH: QVTLKESGPALVKPTQTLTLTCTFSGFSLSTSGMGVSWIRQPPGKALEWLAHIYWDDDKNFNPSLRSRLTITKDPSKNQVVLTMTNMDPVDTATYFCARKLYNDYDYILDYWGQGTTVTVSS VL: DIVMTQSPLSLPVTPGEPASISCRSSKSLLHSNGITYLAWFLQKPGQSPQLLIYQMSNLASGVPDRFSGSGSGTDFTLKISRVEAEDVGVYYCAQNLELWTFGQGTRLEIKR
unit tag: nM
Kd: 0.0509
//
binder: A2-M (antibody, V domains shown, also called humanized mutant antibody A2-M) VH: QVTLKESGPALVKPTQTLTLTCTFSGFSLSTSGMGVSWIRQPPGKALEWLAHIYWDDDKNFNPSLRSRLTITKDPSKNQVVLTMTNMDPVDTATYFCARKLYNDYDYILDYWGQGTTVTVSS VL: DIVMTQSPLSLPVTPGEPASISCRSSKSLLHSNGITYLMWFLQKPGQSPQLLIYQMSNLASGVPDRFSGSGSGTDFTLKISRVEAEDVGVYYCAQNLELWTFGQGTRLEIK
unit tag: nM
Kd: 0.0597
//
binder: A2-G (antibody, human IgG1, kappa, V domains shown, also called humanized mutant antibody A2-G) VH: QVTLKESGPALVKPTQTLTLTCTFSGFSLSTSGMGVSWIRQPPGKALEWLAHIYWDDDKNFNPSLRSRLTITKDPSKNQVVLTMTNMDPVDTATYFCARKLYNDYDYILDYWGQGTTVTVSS VL: DIVMTQSPLSLPVTPGEPASISCRSSKSLLHSNGITYLGWFLQKPGQSPQLLIYQMSNLASGVPDRFSGSGSGTDFTLKISRVEAEDVGVYYCAQNLELWTFGQGTRLEIKR
unit tag: nM
Kd: 0.07
//
binder: A2-Q (antibody, V domains shown, also called humanized mutant antibody A2-Q) VH: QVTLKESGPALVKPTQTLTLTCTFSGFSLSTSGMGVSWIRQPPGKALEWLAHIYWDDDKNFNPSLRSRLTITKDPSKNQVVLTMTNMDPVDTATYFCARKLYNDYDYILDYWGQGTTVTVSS VL: DIVMTQSPLSLPVTPGEPASISCRSSKSLLHSNGITYLQWFLQKPGQSPQLLIYQMSNLASGVPDRFSGSGSGTDFTLKISRVEAEDVGVYYCAQNLELWTFGQGTRLEIK
unit tag: nM
Kd: 0.0698
//
binder: A2-P (antibody, V domains shown, also called humanized mutant antibody A2-P) VH: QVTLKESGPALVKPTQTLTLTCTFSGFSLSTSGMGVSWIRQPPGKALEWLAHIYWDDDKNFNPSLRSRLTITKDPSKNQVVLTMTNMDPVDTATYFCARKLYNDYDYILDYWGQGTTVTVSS VL: DIVMTQSPLSLPVTPGEPASISCRSSKSLLHSNGITYLPWFLQKPGQSPQLLIYQMSNLASGVPDRFSGSGSGTDFTLKISRVEAEDVGVYYCAQNLELWTFGQGTRLEIK
unit tag: nM
Kd: 0.0438
//
binder: A2-N (antibody, V domains shown, also called humanized mutant antibody A2-N) VH: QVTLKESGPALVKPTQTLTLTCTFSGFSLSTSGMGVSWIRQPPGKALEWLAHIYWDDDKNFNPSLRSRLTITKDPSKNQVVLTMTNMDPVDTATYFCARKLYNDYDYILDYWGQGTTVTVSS VL: DIVMTQSPLSLPVTPGEPASISCRSSKSLLHSNGITYLNWFLQKPGQSPQLLIYQMSNLASGVPDRFSGSGSGTDFTLKISRVEAEDVGVYYCAQNLELWTFGQGTRLEIK
unit tag: nM
Kd: 0.102
